# Measured target: intracellular phosphorylation of EGFR (Tyr1068) in PC-9 cells (Ex19Del) (Homo sapiens, UniProt P00533, DEL746-750)
# Sequence (P00533 with tags, fused parts or gaps DEL746-750): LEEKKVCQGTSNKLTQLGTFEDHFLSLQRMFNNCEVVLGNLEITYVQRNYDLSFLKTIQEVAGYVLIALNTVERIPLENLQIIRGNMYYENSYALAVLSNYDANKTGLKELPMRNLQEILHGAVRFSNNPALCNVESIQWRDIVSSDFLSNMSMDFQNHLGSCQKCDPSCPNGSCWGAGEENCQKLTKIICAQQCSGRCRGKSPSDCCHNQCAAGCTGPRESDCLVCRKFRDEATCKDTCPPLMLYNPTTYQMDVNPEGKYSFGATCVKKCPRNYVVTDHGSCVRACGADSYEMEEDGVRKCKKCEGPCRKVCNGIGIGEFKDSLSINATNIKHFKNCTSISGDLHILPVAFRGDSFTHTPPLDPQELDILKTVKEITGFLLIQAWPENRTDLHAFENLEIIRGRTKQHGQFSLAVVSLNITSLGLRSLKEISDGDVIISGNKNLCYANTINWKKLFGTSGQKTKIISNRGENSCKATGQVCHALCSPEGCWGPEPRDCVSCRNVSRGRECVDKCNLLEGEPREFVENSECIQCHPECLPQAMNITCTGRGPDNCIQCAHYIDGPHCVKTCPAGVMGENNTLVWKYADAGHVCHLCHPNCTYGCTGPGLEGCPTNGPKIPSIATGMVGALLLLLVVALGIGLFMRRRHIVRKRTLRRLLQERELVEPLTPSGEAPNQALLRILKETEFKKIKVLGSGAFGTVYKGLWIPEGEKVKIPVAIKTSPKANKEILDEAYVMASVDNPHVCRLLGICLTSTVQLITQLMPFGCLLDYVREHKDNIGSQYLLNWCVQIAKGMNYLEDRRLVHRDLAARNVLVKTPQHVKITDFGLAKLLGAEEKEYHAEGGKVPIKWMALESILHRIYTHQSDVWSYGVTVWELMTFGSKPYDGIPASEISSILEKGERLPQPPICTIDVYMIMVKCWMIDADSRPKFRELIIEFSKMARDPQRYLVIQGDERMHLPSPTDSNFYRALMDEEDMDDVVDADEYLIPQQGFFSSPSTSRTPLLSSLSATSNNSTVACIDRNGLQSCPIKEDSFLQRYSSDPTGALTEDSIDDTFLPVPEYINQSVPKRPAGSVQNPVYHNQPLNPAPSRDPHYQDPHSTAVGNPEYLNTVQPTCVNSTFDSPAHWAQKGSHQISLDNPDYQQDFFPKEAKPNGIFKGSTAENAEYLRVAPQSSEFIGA
# Procedure summary: PC-9 pEGFR AlphaLISA assay
# Test settings: 4 hours compound incubation, read-out: Ext pEGFR_PC-9 Ex19Del IC50
Listing: IC50 of selected compounds

1. Cc1ccc2c(F)c(Nc3ncnc4cc(-c5cnn(C)c5)cc(O[C@H](C)CN(C)C)c34)ccc2n1 [Example 107] :: 0.0101 to 0.05 µM

Below: the item to evaluate.
# get_value(readout='IC50', item= C[C@H](CN(C)C)Oc1cc(N2CC[C@@H](C(C)(C)O)C2)cc2ncnc(Nc3ccc4ncccc4c3F)c12 [Example 72] ) 0.0101 to 0.05 µM

These entries and their values trace back to patent US12662465B2.
